Where these numbers come from: paper PMC9911399

Measured binding signal, listed per entry.
Target: T1, RBFOX1 RRM (Homo sapiens, UniProt Q9NWB1 109-208)
T1 sequence: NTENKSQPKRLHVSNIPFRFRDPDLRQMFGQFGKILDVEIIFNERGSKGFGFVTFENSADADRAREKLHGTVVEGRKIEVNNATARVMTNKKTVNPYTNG
Test: EMSA; HiTS-Eq, 1 nM pool, 10 min; buffer printed only for the single-RNA assays: 10 mM Tris pH 7.5, 150 mM NaCl, 3.4 mM EDTA, 0.001% NP-40, 30 C
Details: tags: His6 N-terminal (pET28a); label: 5' 32P
The full ranking holds about 16,000 sequences; the median of “ka relative to ugcaugu” is about 0.0091, and the highest 2% start at about 0.032. Only a selection was taken, and the highest values are over-represented in it overall.

Study these solved cases before continuing.
BINDER	READING
CGCGGAU (DNA:RNA) RNA: GGGAGACCGGAAUUCAGAUUGUCCCGCGGAUUUAAAUCCCGUCGUAGCCACCA DNA 1: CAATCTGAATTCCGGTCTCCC DNA 2: TGGTGGCTACGACGGGATT	0.0187 KA relative to UGCAUGU
AGGUCCC (DNA:RNA) RNA: GGGAGACCGGAAUUCAGAUUGUCCAGGUCCCUUAAAUCCCGUCGUAGCCACCA DNA 1: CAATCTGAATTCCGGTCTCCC DNA 2: TGGTGGCTACGACGGGATT	0.00339 KA relative to UGCAUGU
GCGGUUC (DNA:RNA) RNA: GGGAGACCGGAAUUCAGAUUGUCCGCGGUUCUUAAAUCCCGUCGUAGCCACCA DNA 1: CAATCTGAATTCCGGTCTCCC DNA 2: TGGTGGCTACGACGGGATT	0.0202 KA relative to UGCAUGU
GGGGGAU (DNA:RNA) RNA: GGGAGACCGGAAUUCAGAUUGUCCGGGGGAUUUAAAUCCCGUCGUAGCCACCA DNA 1: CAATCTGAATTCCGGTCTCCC DNA 2: TGGTGGCTACGACGGGATT	0.0252 KA relative to UGCAUGU
AACGACU (DNA:RNA) RNA: GGGAGACCGGAAUUCAGAUUGUCCAACGACUUUAAAUCCCGUCGUAGCCACCA DNA 1: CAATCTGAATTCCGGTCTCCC DNA 2: TGGTGGCTACGACGGGATT	0.00509 KA relative to UGCAUGU

Proceeding to the next binder to report its binding signal.
Name the reported binding signal value associated with the binder GGAGAUU (DNA:RNA) RNA: GGGAGACCGGAAUUCAGAUUGUCCGGAGAUUUUAAAUCCCGUCGUAGCCACCA DNA 1: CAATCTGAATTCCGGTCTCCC DNA 2: TGGTGGCTACGACGGGATT
0.0219 KA relative to UGCAUGU
